So I've got a bunch of molecules here, and I need their composite z-score values.
Assay: binders of probe aFGF10 on microarray, primary screen, stem cell growth factor project, biochemical, small-molecule microarray, fluorescence 635/667 (AID 1071);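 further: score merges 667 nm spot intensity and signal to noise from triplicate slides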
Conditions: higher = more signal
Numbers only.

These solved cases illustrate the format of a correct answer.
{"molecule": "CC(C)CON=C1[C@H]2CCn3c(=O)n(Cc4cc5c(cc4Cl)OCO5)c(=O)n3[C@H]2[C@H](O)[C@@H]2O[C@H]12", "composite z-score": 0.258}
{"molecule": "COc1cccc([C@H]2Oc3ccc(OC)cc3C(=NO[C@@H]3O[C@H](COC(C)=O)[C@@H](OC(C)=O)[C@H](OC(C)=O)[C@H]3OC(C)=O)[C@@H]2O)c1", "composite z-score": 0.326}

Please turn your attention to the following entry.
Prompt: Specify reported composite z-score for the molecule shown: COC(=O)[C@H](C)NC(=O)CCC1CC(OC(=O)NCc2cccc3ccccc23)CC2(CCCC(COC(=O)NCC(c3ccccc3)c3ccccc3)O2)O1 (stereo partly drawn)
Completion: 0.532

---

Assay: small-molecule binders of probe aInhba, primary screen, biochemical, small-molecule microarray, 635/667 nm fluorescence (AID 1148);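 further: score merges 667nm spot fluorescence with signal-to-noise for antibody binding to printed compounds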
Details: higher = more signal
measurement-name: composite z-score
Give bare numbers.

Would you please look over these solved cases?
{"molecule": "O=C1[C@H]2[C@H]3[C@H](O)[C@H](O)CC(=NOC[C@@H](O)COCc4ccco4)[C@H]3CC[C@H]2C(=O)N1Cc1ccccc1", "composite z-score": -0.182}
{"molecule": "CC(C)=CCCC(C)=CCON=C1C[C@@H](O)[C@@H](O)[C@@H]2[C@@H]3C(=O)N(c4ccc(F)cc4F)C(=O)[C@@H]3CC[C@@H]12", "composite z-score": -0.152}
{"molecule": "CCOC(=O)[C@H](CC(C)C)NC(=O)CCC1CC(OC(=O)NCCc2ccc(F)cc2)CC2(CCCC(COC(=O)NCCC(C)C)O2)O1 (some centres not stated)", "composite z-score": -0.0963}

Kindly give each listed record's composite z-score.
1. O=c1n(-c2ccccc2)c(=O)n2n1CC[C@@H]1C(=NOCc3ccccc3)[C@H]3O[C@H]3[C@@H](O)[C@@H]12
2. COC(=O)CC=C[C@@H](C)[C@@H](C=NOC(C)CN1CCCc2nc(C)c(C)cc21)OC (some centres not stated)

Completion:
-0.0695
0.098

// for each molecule below, give its composite z-score
1. CC(=O)OC[C@H]1O[C@@H](ON=C(C)CCN2CCCc3nc(C)c(C)cc32)[C@H](OC(C)=O)[C@@H](OC(C)=O)[C@@H]1OC(C)=O
2. COc1cccc([C@H]2Oc3ccc(OC)cc3C(=NOC[C@@H](C)[C@H](OCc3ccccc3)C(C)C)[C@@H]2O)c1

Completion:
1: -0.0626; 2: -0.106

---

Target: Left-right determination factor 2 (Homo sapiens)
Assay: LEFTY2 binders on small-molecule microarrays, primary screen, biochemical, small-molecule microarray, 635 nm fluorescence scan (AID 1110)
Details: LEFTY2 binding, higher = more signal
Label 1 (yes) when composite z-score >= 0.5; otherwise 0 (no).

Illustrative cases are given below, each with its answer.
{"compound": "CO[C@@H]1COC(=O)[C@H](CCSC)NC(=O)CC=C[C@@H](C)COC(=O)[C@H](C)NC(=O)CC=C[C@H]1C", "group-label": "1 (yes)"}
{"compound": "COC(=O)[C@H](C)NC(=O)CCC1CC(OC(=O)NCc2ccc3c(c2)OCO3)CC2(CCCC(COC(=O)NCc3cccc(C(F)(F)F)c3)O2)O1 (some centres not stated)", "group-label": "1 (yes)"}
{"compound": "CON=CC[C@@H]1C=C[C@H](OC(C)=O)[C@@H](COC(C)=O)O1", "group-label": "1 (yes)"}
{"compound": "CCOC(=O)NN=C1C[C@@H](O)[C@@H](O)[C@@H]2[C@@H]3C(=O)N(Cc4ccccc4)C(=O)[C@@H]3CC[C@H]12", "group-label": "1 (yes)"}
{"compound": "C=COC[C@@H]1CN2[C@@H](CC[C@@H](C)[C@@H]2c2ccc(Br)cc2)C(=O)O1", "group-label": "0 (no)"}

Prompt: Hello, I need to know if CCOC(=O)[C@H](CC(C)C)NC(=O)CCC1CC(OC(=O)NCCc2ccc(F)cc2)CC2(CCCC(COC(=O)NCCC(C)C)O2)O1 (some centres not stated) has measured composite z-score not below 0.5. Thanks!
Completion: 0 (no)

---

Kindly state composite z-score for each of the entries shown.
System: Lefty1
Experiment: Lefty1 binders on small-molecule microarrays, primary screen, biochemical, small-molecule microarray, 635/667 nm fluorescence (AID 1139)
Conditions: small-molecule microarray binding, fluorescence 635/667; higher = more signal
Give bare numbers.

Answered examples (10):
{"molecule": "CCCCC#C[C@@H]1C=C[C@H](Oc2ccc(C(=O)OC)cc2)[C@@H](COC(=O)OCC)O1", "composite z-score": 0.309}
{"molecule": "COc1ccc(COC(=O)NN=C2C[C@@H](O)[C@@H](O)[C@@H]3[C@@H]4C(=O)N(c5ccc(F)cc5F)C(=O)[C@@H]4CC[C@H]23)cc1", "composite z-score": -0.773}
{"molecule": "CC(C)=CCCC(C)=CCON=C1C[C@@H](O)[C@@H](O)[C@@H]2[C@@H]3C(=O)N(Cc4ccccc4)C(=O)[C@@H]3CC[C@@H]12", "composite z-score": 0.894}
{"molecule": "C[C@H]1CC[C@H]2C(=O)OC(CO)CN2[C@@H]1c1ccc(Br)cc1 (stereo not given in full)", "composite z-score": -0.0811}
{"molecule": "CO[C@H]1COC(=O)[C@@H](Cc2ccccc2)NC(=O)[C@@H](C)COC(=O)CCC[C@@H]1C", "composite z-score": 0.534}
{"molecule": "COC(=O)CC=C[C@@H](C)[C@@H](C=NOC[C@@H](O)[C@H]1O[C@@H]2OC(C)(C)O[C@@H]2[C@H]1O)NS(=O)(=O)c1ccc(C)cc1", "composite z-score": 0.223}
{"molecule": "CO[C@H]1COC(=O)[C@@H](C)COC(=O)[C@H](C)NC(=O)CC=C[C@H]1C", "composite z-score": 1.58}
{"molecule": "CCN1C(=O)[C@H]2[C@H]3[C@H](O)[C@H](O)CC(=NNC(=O)OCc4ccc(OC)cc4)[C@@H]3CC[C@H]2C1=O", "composite z-score": -0.524}
{"molecule": "CO[C@H]1COC(=O)CC=C[C@@H](C)[C@H](OC)COC(=O)[C@@H]2CCCN2C(=O)CC=C[C@@H]1C", "composite z-score": 1.57}
{"molecule": "C[C@H]1COC(=O)[C@@H]2CCCN2C(=O)[C@@H](C)COC(=O)[C@H](Cc2ccccc2)NC1=O", "composite z-score": 0.96}

Give composite z-score for all molecules that follow.
1. CCOC(=O)[C@H](Cc1ccccc1)NC(=O)CCC1CC(OC(=O)NCCc2ccc(F)cc2)CC2(CCCC(COC(=O)NCCCN3CCCC3=O)O2)O1 (stereo not given in full)
2. COC(=O)[C@H](C)NC(=O)CCC1CC(OC(=O)NCc2ccc3c(c2)OCO3)CC2(CCCC(COC(=O)NCCc3ccccc3OC)O2)O1 (stereo not given in full)
3. COC(=O)CC=C[C@@H](C)[C@@H](C=NO[C@@H](C)c1cc(-c2c(C)cc(C)cc2C)no1)NS(=O)(=O)c1ccc(C)cc1
4. CCOC(=O)[C@H](CC(C)C)NC(=O)CCC1CC(OC(=O)NCCc2ccc(F)cc2)CC2(CCCC(COC(=O)NCCOc3ccccc3)O2)O1 (stereo not given in full)
5. Cc1ccc(S(=O)(=O)N[C@H]2COC(=O)CC=C[C@@H](C)COC(=O)CC=C[C@@H]2C)cc1

Completion:
1. 0.461
2. -0.0317
3. -1.55
4. 1.35
5. 1.23

---

Provide the recorded composite z-score for the entries that follow.
Test: binders of probe aFST on microarray, primary screen, stem cell growth factor project, biochemical, small-molecule microarray, fluorescence 635/667 (AID 1086);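 further: score merges 667 nm fluorescence with signal-to-noise of each printed compound spot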
Details: higher = more signal

{"record-smiles": "COc1cccc([C@H]2Oc3ccc(OC)cc3C(=NOC[C@@H](O)COCc3ccco3)[C@@H]2O)c1", "composite z-score": -0.625}
{"record-smiles": "O=C1C[C@@H](O)[C@@H](O)[C@@H]2[C@@H]3C(=O)N(Cc4ccc5c(c4)OCO5)C(=O)[C@@H]3CC[C@H]12", "composite z-score": 0.078}
{"record-smiles": "CC(C)CON=C1C[C@@H](O)[C@@H](O)[C@@H]2[C@@H]3C(=O)N(Cc4ccc5c(c4)OCO5)C(=O)[C@@H]3CC[C@H]12", "composite z-score": 0.0313}

Prompt: Indicate its recorded composite z-score; the molecule in question is CC(CCN1CCCCc2nc(C)c(C)cc21)=NOC[C@@H](O)COCc1ccco1
Completion: 0.193
